From: patent US9029389B2

Listing: inhibition at 10 µM of selected molecules
Molecular target: Human 5-lipoxygenase (Homo sapiens, UniProt P09917)
Construct: purchased Cayman 60402; host or cells: insect cells
Sequence (P09917 whole entry): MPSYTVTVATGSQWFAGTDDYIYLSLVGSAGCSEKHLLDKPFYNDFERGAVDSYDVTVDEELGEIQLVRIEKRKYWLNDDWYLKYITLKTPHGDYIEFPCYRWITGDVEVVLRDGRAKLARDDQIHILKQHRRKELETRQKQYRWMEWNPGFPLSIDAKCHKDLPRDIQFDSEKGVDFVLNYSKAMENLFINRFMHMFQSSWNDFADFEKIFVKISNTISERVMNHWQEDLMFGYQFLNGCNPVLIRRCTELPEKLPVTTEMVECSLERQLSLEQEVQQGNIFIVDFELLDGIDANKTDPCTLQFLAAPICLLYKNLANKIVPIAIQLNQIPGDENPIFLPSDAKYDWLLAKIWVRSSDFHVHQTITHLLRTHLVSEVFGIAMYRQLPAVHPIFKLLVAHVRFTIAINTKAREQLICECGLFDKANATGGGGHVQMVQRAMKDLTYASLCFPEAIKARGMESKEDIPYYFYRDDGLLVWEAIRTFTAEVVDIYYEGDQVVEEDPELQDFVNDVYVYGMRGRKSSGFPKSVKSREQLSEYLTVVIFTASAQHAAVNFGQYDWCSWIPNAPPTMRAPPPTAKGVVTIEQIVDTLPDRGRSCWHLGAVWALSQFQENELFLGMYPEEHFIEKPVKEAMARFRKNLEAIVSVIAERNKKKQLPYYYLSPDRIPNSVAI
Assay: Activity of compounds against 5-LO enzyme (LTB4 measurement and/or fluorescence method)
Assay type: biochemical
Conditions: 5-LO, single concentration of 10 uM in duplicate
Description: The activity of compounds against 5-LO were determined by measuring LTB4 (leukotriene B4) levels and/or by a fluorescence method. Both approaches are outlined in more detail below; […] Relative quantification of LTB4 and LTB4-d4 (Internal Standard) was done using multi reaction monitoring (MRM) of the transitions of m/z 335→195 for LTB4, 339→197 for LTB4-d4 in electrospray ionization (ESI) negative mode. […]
MEASURED ATTRIBUTE: inhibition at 10 µM

# MOLECULE, OBSERVED
data = [
    ("Cc1nc2ccccn2c1C(=O)NCc1ccc(F)cc1 [compound 4]", "< 40%"),
    ("CCc1nc2ccc(Cl)cn2c1C(=O)NCc1ccc(N2CCC(O)(C(C)(C)C)CC2)cc1 [compound 322]", "< 40%"),
    ("Cc1ccn2c(C(=O)NCc3ccccc3)c(C)nc2c1 [compound 32]", "< 40%"),
    ("CCc1nc2ccc(Cl)cn2c1C(=O)NCC(C)C [compound 239]", "< 40%"),
    ("CCc1nc2cc(Cl)ccn2c1C(=O)NCc1ccc(N2CCC(c3ccc(Cl)cc3)CC2)cc1 [compound 297]", "40 to 69%"),
]
